# MEASURED_ON: Calcium Sensing Receptor (CaSR) (Homo sapiens, UniProt P41180)
# Sequence (P41180 20-1078): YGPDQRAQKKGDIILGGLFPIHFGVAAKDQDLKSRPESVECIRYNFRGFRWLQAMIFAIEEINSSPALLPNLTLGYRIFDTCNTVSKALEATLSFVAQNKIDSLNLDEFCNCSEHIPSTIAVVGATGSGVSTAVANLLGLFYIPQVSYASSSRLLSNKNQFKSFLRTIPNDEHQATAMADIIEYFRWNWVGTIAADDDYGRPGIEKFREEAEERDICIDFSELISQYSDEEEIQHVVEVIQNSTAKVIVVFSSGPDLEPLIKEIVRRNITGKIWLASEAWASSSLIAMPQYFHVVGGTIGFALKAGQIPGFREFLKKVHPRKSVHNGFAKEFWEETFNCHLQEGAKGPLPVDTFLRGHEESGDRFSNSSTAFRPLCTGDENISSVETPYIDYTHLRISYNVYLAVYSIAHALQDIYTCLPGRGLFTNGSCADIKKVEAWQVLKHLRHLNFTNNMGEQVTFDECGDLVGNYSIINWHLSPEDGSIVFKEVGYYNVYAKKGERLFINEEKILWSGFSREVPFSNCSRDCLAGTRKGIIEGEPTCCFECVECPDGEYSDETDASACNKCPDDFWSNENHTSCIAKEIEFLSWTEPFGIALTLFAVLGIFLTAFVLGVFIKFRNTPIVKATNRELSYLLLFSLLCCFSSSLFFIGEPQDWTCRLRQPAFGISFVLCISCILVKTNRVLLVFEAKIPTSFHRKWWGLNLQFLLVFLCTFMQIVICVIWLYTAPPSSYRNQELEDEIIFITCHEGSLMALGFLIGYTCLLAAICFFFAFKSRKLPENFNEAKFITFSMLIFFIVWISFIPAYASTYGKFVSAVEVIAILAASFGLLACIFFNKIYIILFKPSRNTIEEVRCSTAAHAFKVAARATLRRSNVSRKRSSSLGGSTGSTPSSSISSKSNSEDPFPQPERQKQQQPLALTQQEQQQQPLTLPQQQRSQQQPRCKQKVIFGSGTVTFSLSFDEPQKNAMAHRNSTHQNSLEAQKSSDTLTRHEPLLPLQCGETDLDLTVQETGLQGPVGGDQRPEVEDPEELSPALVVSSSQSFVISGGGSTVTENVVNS
# METHOD_NOTES: In-vitro assay of calcimimetics through modulation of Calcium Sensing Receptor (intracellular calcium increase, FLIPR)
# EXPERIMENTAL_CONTEXT: stably transfected HEK293 cells expressing hCaSR; Fluo4NW dye; 0.3 mM CaCl2; 8-point assay; read-out: EC50 Range
pEC50: −log10 of the molar value. Where a name gives a salt, the structure may show the parent alone.
Below, each of the compounds is paired with its reported pEC50 value.

INPUT: Quote pEC50 with test system Calcium Sensing Receptor (CaSR) (Homo sapiens, UniProt P41180) for Cc1ccc(C2CC(CN[C@H](C)c3cccc4ccccc34)Cc3ccccc32)cc1C(=O)O (single isomer, unassigned) [Example 8d, hydrochloride]
OUTPUT: 7.30 to 7.70

Next:
INPUT: Report pEC50 under test system Calcium Sensing Receptor (CaSR) (Homo sapiens, UniProt P41180) for Cc1ccc(C2C[C@H](CCCN[C@H](C)c3ccc(F)c4ccccc34)Cc3ccccc32)cc1C(=O)O (stereo partly drawn) [Example 29, hydrochloride] .
OUTPUT: > 7.70

INPUT: GET pEC50 where system = Calcium Sensing Receptor (CaSR) (Homo sapiens, UniProt P41180) and item = Cc1ccc(C2CC(N[C@H](C)c3cccc4ccccc34)Cc3ccccc32)cc1C(=O)O (stereo partly drawn) [Example 22, hydrochloride]
OUTPUT: 7.30 to 7.70

INPUT: Under Calcium Sensing Receptor (CaSR) (Homo sapiens, UniProt P41180): report pEC50 of Cc1ccc(N2CC(CN[C@H](C)c3ccc(F)c4ccccc34)Cc3ccccc32)cc1C(=O)O (single isomer, unassigned) [Example 72b, hydrochloride] .
OUTPUT: 7.30 to 7.70

INPUT: Find pEC50 for Cc1ccc(N2C[C@@H](CN[C@H](C)c3cccc4ccccc34)Cc3ccccc32)cc1C(=O)O [Example 69a, hydrochloride] on Calcium Sensing Receptor (CaSR) (Homo sapiens, UniProt P41180) and write it down.
OUTPUT: > 7.70

INPUT: Give reported pEC50 for Cc1c(C(=O)O)cccc1N1CC(CCCN[C@H](C)c2ccc(F)c3ccccc23)Cc2ccccc21 (single isomer, unassigned) [Example 79a, hydrochloride] (Calcium Sensing Receptor (CaSR) (Homo sapiens, UniProt P41180))
OUTPUT: > 7.70

----------
# MEASURED_ON: Calcium Sensing Receptor (CaSR) (Homo sapiens)
# METHOD_NOTES: In-vitro assay of calcimimetics through modulation of Calcium Sensing Receptor (intracellular calcium increase, FLIPR)
# EXPERIMENTAL_CONTEXT: stably transfected HEK293 cells expressing hCaSR; Fluo4NW dye; 0.3 mM CaCl2; 8-point assay; read-out: EC50 Range
pEC50: −log10 of the molar value. Structures can show the parent of a compound that is named as a salt.
Recorded pEC50, one value per entry.

Solved cases (4 shown):
INPUT: Retrieve pEC50 measured for Cc1cc(C(=O)O)cc(C2CC(CN[C@H](C)c3cccc4ccccc34)Cc3ccccc32)c1 (single isomer, unassigned) [Example 9b, hydrochloride] and print it.
OUTPUT: 7.30 to 7.70

INPUT: Please report the measured pEC50 for C[C@@H](NCC1Cc2ccccc2C(c2ccc(F)c(C(=O)O)c2)C1)c1cccc2ccccc12 (single isomer, unassigned) [Example 7c, hydrochloride]
OUTPUT: 7.30 to 7.70

INPUT: Report pEC50 for Cc1cc(C2C[C@H](CN[C@H](C)c3cccc4ccccc34)Cc3ccccc32)ccc1C(=O)O (single isomer, unassigned) [Example 13a, hydrochloride]
OUTPUT: 7.30 to 7.70

INPUT: Specify reported pEC50 for the compound shown: Cc1ccc(C(=O)O)cc1C1C[C@H](CN[C@H](C)c2cccc3ccccc23)Cc2ccccc21 (single isomer, unassigned) [Example 14a, hydrochloride]
OUTPUT: 6.70 to 7.30

Please look at the following compound next.
INPUT: Return reported pEC50. Input compound: COc1cc([C@@H](C)NC[C@@H]2Cc3ccccc3C(c3ccc(C)c(C(=O)O)c3)C2)ccc1F (single isomer, unassigned) [Example 16a, hydrochloride]
OUTPUT: > 7.70

----------
# MEASURED_ON: Calcium Sensing Receptor (CaSR) (Homo sapiens, UniProt P41180)
# METHOD_NOTES: In-vitro assay of calcimimetics through modulation of Calcium Sensing Receptor (intracellular calcium increase, FLIPR)
# EXPERIMENTAL_CONTEXT: stably transfected HEK293 cells expressing hCaSR; Fluo4NW dye; 0.3 mM CaCl2; 8-point assay; read-out: EC50 Range
pEC50: −log10 of the molar value. Where a name gives a salt, the structure may show the parent alone.
Listed next: entries and their corresponding pEC50.

Reference set, count: 5
INPUT: Supply recorded pEC50 for C[C@@H](NCC1Cc2ccccc2C(c2ccc(F)c(C(=O)O)c2)C1)c1cccc2ccccc12 (single isomer, unassigned) [Example 7a, hydrochloride] here.
OUTPUT: > 7.70

INPUT: Provide only the value of recorded pEC50 for Cc1ccc(N2CC(CCCN[C@H](C)c3cccc4ccccc34)Cc3ccccc32)cc1OCC(=O)O (single isomer, unassigned) [Example 80b, hydrochloride]
OUTPUT: 7.30 to 7.70

INPUT: Look up pEC50 of Cc1ccc(C2CC(CN[C@H](C)c3cccc4ccccc34)Cc3ccccc32)cc1C(=O)O (single isomer, unassigned) [Example 8b, hydrochloride] and report it.
OUTPUT: > 7.70

INPUT: For the molecule Cc1ccc(C2CC(CN[C@H](C)c3cccc4ccccc34)Cc3ccccc32)cc1C(=O)O (single isomer, unassigned) [Example 8a, hydrochloride] , give its measured pEC50 value.
OUTPUT: > 7.70

INPUT: Identify measured pEC50 corresponding to COc1cc([C@@H](C)NC[C@@H]2Cc3ccccc3C(c3ccc(C)c(C(=O)O)c3)C2)ccc1F (single isomer, unassigned) [Example 16b, hydrochloride]
OUTPUT: 7.30 to 7.70

Further cases:
INPUT: Return value of pEC50 for input Cc1ccc(C2C[C@H](CN[C@H](C)c3ccc(F)c4ccccc34)Cc3ccccc32)cc1C(=O)O (single isomer, unassigned) [Example 19b, hydrochloride] , no commentary.
OUTPUT: 7.30 to 7.70

INPUT: Report measured pEC50; entry is Cc1ccc(N2CC(CN[C@H](C)c3cccc4ccccc34)Cc3ccccc32)c(C)c1C(=O)O (single isomer, unassigned) [Example 71a, hydrochloride]
OUTPUT: > 7.70

INPUT: Find the measured pEC50 of Cc1ccc(N2CC(CCN[C@H](C)c3cccc4ccccc34)Cc3ccccc32)cc1OCC(=O)O (single isomer, unassigned) [Example 77b, hydrochloride] and report it.
OUTPUT: > 7.70

INPUT: Quickly give me recorded pEC50 for Cc1ccc(N2CC(CN[C@H](C)c3cccc4ccccc34)Cc3cc(F)ccc32)cc1C(=O)O (single isomer, unassigned) [Example 75a, hydrochloride]
OUTPUT: > 7.70

INPUT: Using known records, supply pEC50 for Cc1ccc(C2C[C@H](CCN[C@H](C)c3cccc4ccccc34)Cc3ccccc32)cc1C(=O)O (single isomer, unassigned) [Example 27a, hydrochloride]
OUTPUT: > 7.70

INPUT: Specify measured pEC50 for C[C@@H](NCC1Cc2ccccc2C(c2cccc(C(=O)O)c2)C1)c1cccc2ccccc12 (single isomer, unassigned) [Example 2c, hydrochloride] .
OUTPUT: 7.30 to 7.70

----------
The reader will find reported pEC50 values listed item by item below.
# MEASURED_ON: Calcium Sensing Receptor (CaSR) (Homo sapiens)
# METHOD_NOTES: In-vitro assay of calcimimetics through modulation of Calcium Sensing Receptor (intracellular calcium increase, FLIPR)
# EXPERIMENTAL_CONTEXT: stably transfected HEK293 cells expressing hCaSR; Fluo4NW dye; 0.3 mM CaCl2; 8-point assay; read-out: EC50 Range
pEC50: −log10 of the molar value. Counter-ions that a name gives are not always drawn.

For orientation, consider the following solved cases.
INPUT: Return reported pEC50 for target or system Calcium Sensing Receptor (CaSR) (Homo sapiens), item Cc1ccc(C2CC(CN[C@H](C)c3cccc4ccccc34)Cc3ccccc32)c(C)c1C(=O)O (single isomer, unassigned) [Example 10a, hydrochloride] .
OUTPUT: > 7.70

INPUT: For Calcium Sensing Receptor (CaSR) (Homo sapiens), give the measured pEC50 of the entry Cc1ccc(C2C[C@H](CN[C@H](C)c3ccc(F)c4ccccc34)Cc3ccccc32)cc1C(=O)O (single isomer, unassigned) [Example 19a, hydrochloride]
OUTPUT: > 7.70

INPUT: Send back Calcium Sensing Receptor (CaSR) (Homo sapiens) pEC50 of C[C@@H](NCC1Cc2ccccc2C(c2cccc(C(=O)O)c2)C1)c1cccc2ccccc12 (single isomer, unassigned) [Example 2b, hydrochloride] only.
OUTPUT: 6.70 to 7.30

---
INPUT: Look up and report pEC50, with Calcium Sensing Receptor (CaSR) (Homo sapiens) as system, for Cc1ccc(C2CC(CN[C@H](C)c3cccc4ccccc34)Cc3ccccc32)cc1C(=O)O (single isomer, unassigned) [Example 8c, hydrochloride]
OUTPUT: 6.70 to 7.30

INPUT: Lab note: Calcium Sensing Receptor (CaSR) (Homo sapiens) assay, enter pEC50 for Cc1ccc(C2C[C@H](CCN[C@H](C)c3ccc(F)c4ccccc34)Cc3ccccc32)cc1C(=O)O (stereo partly drawn) [Example 25, hydrochloride] here
OUTPUT: 7.30 to 7.70

INPUT: Enter pEC50 (test system Calcium Sensing Receptor (CaSR) (Homo sapiens)) for COc1cc([C@@H](C)NCC2Cc3ccccc3N(c3ccc(C)c(C(=O)O)c3)C2)ccc1F (single isomer, unassigned) [Example 73b, hydrochloride]
OUTPUT: 6.70 to 7.30
